Test system: OCI-AML3
METHOD DESCRIPTION: Growth inhibition of OCI-AML3 cells
Assay type: cell-based
TEST CONDITIONS: Homo sapiens, OCI-AML-3; OCI-AML3 cells; read-out: OCI-AML3 IC50
ENDPOINT: IC50

> print(dat)
                           molecular.string  endpoint  observed.result
1  O=C1C=C2C(C#Cc3ccsc3)=C[C@@H]3C[C@@]2(O1)[C@H]1CCCCN31      IC50            75 nM
2  N#Cc1ccc(C#CC2=C[C@@H]3C[C@@]4(OC(=O)C=C24)[C@H]2CCCCN32)cc1      IC50           205 nM
3  CCN(CC)CC#CC1=C[C@@H]2C[C@@]3(OC(=O)C=C13)[C@H]1CCCCN21      IC50           110 nM
4  O=C1C=C2C(C#Cc3ccc(OC(F)(F)F)cc3)=C[C@@H]3C[C@@]2(O1)[C@H]1CCCCN31      IC50         > 300 nM
5  N#CCCCC#CC1=C[C@@H]2C[C@@]3(OC(=O)C=C13)[C@H]1CCCCN21      IC50           195 nM
6  COc1cccc(C#CC2=C[C@@H]3C[C@@]4(OC(=O)C=C24)[C@H]2CCCCN32)c1      IC50           215 nM
